# IC90 per record follows
- Test system: Leishmania infantum
- EXPERIMENTAL_PROTOCOL: microbe, parasite or virus in culture
- RUN_PARAMETERS: MHOM/MA(BE)/67/ITMAP263, in Mus musculus, 120 h
- Description: Antileishmanial activity against amastigote stage of Leishmania infantum MHOM/MA(BE)/67/ITMAP263 infected in mouse peritoneal macrophage assessed as parasite growth inhibition incubated for 5 days by Giemsa staining based assay
ATTRIBUTE_MEASURED: IC90

CCCC(=O)N1CCCC(O)(c2cc3ncccc3[nH]2)C1 (stereo not given)    64 µM
O=C(c1ccccc1)N1CC=C(c2cc3ccccc3[nH]2)CC1    64 µM
N#Cc1cnc2cc(C3CCCN(C(=O)c4cc(C(F)(F)F)no4)C3)[nH]c2c1 (stereo not given)    59 µM
O=C(c1ccc(F)cc1)N1CC=C(c2cc3ncccc3[nH]2)CC1    58.5 µM
N#Cc1ccc(C(=O)N2CCCC(c3cc4ncccc4[nH]3)C2)cc1 (stereo not given)    64 µM
CC(C)c1cc(C(=O)N2CCCC(c3cc4ncccc4[nH]3)C2)on1 (stereo not given)    32 to 64 µM
Cc1ccoc1C(=O)N1CCCC(c2cc3ncccc3[nH]2)C1 (stereo not given)    64 µM
O=C(c1ccc(F)cc1)N1CCCC(c2cc3ncc(Cl)cc3[nH]2)C1 (stereo not given)    50.4 µM
COc1cc(C(=O)N2CCCC(c3cc4ncccc4[nH]3)C2)on1 (stereo not given)    64 µM
COc1ccc(Cl)cc1C(=O)N1CCCC(c2cc3ncccc3[nH]2)C1 (stereo not given)    32 µM
CCN(CCc1nc2ncc(Cl)cc2[nH]1)C(=O)c1ccc(F)cc1    64 µM
O=C(NCCc1nc2ccccc2[nH]1)c1ccccc1    64 µM
O=C(c1cc(C(F)(F)F)no1)N1CCCC(c2cc3ncc(Br)cc3[nH]2)C1 (stereo not given)    64 µM
O=C(c1ccccc1)N1CCCC(c2nc3ncccc3[nH]2)C1 (stereo not given)    64 µM
O=C(c1ccc(C(F)(F)F)nc1)N1CCCC(c2cc3ncccc3[nH]2)C1 (stereo not given)    64 µM
O=C(CCc1nc2ncccc2[nH]1)Nc1ccccc1    64 µM
O=C(c1ccccc1)N1CCC(c2cc3ncccc3[nH]2)CC1    64 µM
CC(=O)N1C=C(c2cc3ncccc3[nH]2)CCC1    64 µM
O=C(CCc1nc2ncc(Cl)cc2[nH]1)Nc1cccc(F)c1    64 µM
CN(C(=O)c1ccccc1)c1cccc(-c2cc3ncccc3[nH]2)c1    60.5 µM
CC(C)c1cc(C(=O)N2CCC(O)(c3cc4ncccc4[nH]3)CC2)on1    64 µM
O=S(=O)(c1ccccc1)N1CC=C(c2cc3ncccc3[nH]2)CC1    60.5 µM
CN(CCc1cc2ncccc2[nH]1)C(=O)c1ccccc1    64 µM
O=C(c1ccc(F)cc1)N1CCCC(c2cc3nc(N4CCCC4)ccc3[nH]2)C1 (stereo not given)    59.6 µM
O=C(c1ccccc1)N1CCCC(c2cc3ncccn3n2)C1 (stereo not given)    64 µM
Cc1nc(C)c(C(=O)N2CCCC(c3cc4ncccc4[nH]3)C2)s1 (stereo not given)    64 µM
COc1cc(OC)c2cc(C(=O)N3CCCC(c4cc5ncccc5[nH]4)C3)[nH]c2c1 (stereo not given)    29.8 µM
CC(C)(C)OC(=O)N1CCCC(c2cn3nc(Cl)ccc3n2)C1 (stereo not given)    64 µM
O=C(c1cc(C(F)(F)F)no1)N1CCCC(c2cc3ncc(-c4ccccc4)cc3[nH]2)C1 (stereo not given)    59.6 µM
COc1cccc(C(=O)N2CCCC(c3cc4ncccc4[nH]3)C2)c1OC (stereo not given)    32 µM
O=C(OCc1ccccc1)N1CCCC(c2cn3cccnc3n2)C1 (stereo not given)    64 µM
CCN(CCc1nc2ncccc2[nH]1)C(=O)c1ccccc1    64 µM
O=C(CCc1nc2cccnc2n1CCO)Nc1ccccc1    64 µM
O=C(Nc1cccc(-c2cc3ncccc3[nH]2)c1)c1ccccc1    64 µM
O=C(c1cccc(C(F)(F)F)n1)N1CCCC(c2cc3ncccc3[nH]2)C1 (stereo not given)    64 µM
O=C(c1cncnc1)N1CCCC(c2cc3ncccc3[nH]2)C1 (stereo not given)    64 µM
O=C(c1cc(C(F)(F)F)n[nH]1)N1CCCC(c2cc3ncccc3[nH]2)C1 (stereo not given)    64 µM
O=C(c1cc(C(F)(F)F)no1)N1CCCC(c2cc3nc(NCc4ccccc4)ccc3[nH]2)C1 (stereo not given)    23.6 µM
O=C(c1ccccc1)N1CCN(c2nc3ccccc3s2)CC1    64 µM
O=C(c1ccc(F)cc1)N1CCCC(c2cc3ncccc3[nH]2)C1 (stereo not given)    64 µM
O=C(c1cc(C2CC2)no1)N1CCOC(c2cc3ncccc3[nH]2)C1 (stereo not given)    64 µM
O=C(c1ccccc1)N1CCCC(c2cn3ncccc3n2)C1 (stereo not given)    64 µM
O=C(c1ccccc1)N1CCCC(c2cn3nc(Cl)ccc3n2)C1 (stereo not given)    64 µM
O=C(Cc1ccccc1)N1CCN(c2nc3ccccc3s2)CC1    64 µM
CCN(CCC(=O)Nc1cccnc1)C(=O)c1ccc(F)cc1    64 µM
